Several reports have described IC50 for IRAK4 (Homo sapiens (Human)); a selection of those results is presented here.
# value in µM; strip the unit string

Report IC50 for "CC(C)(O)CCc1cn2cc(NC(=O)c3cccc(C(F)(F)F)n3)c(N3CCCCC3)cc2n1" tested on IRAK4 (Homo sapiens (Human)). 0.0012

Report IC50 for CC(C)Oc1cc(Nc2ncc(-c3nc4ccccc4s3)c(N[C@@H]3CC(C(C)(C)O)[C@@H](O)[C@H]3O)n2)ccn1 (stereo in doubt) tested on IRAK4 (Homo sapiens (Human)). 0.019

Report IC50 for "CC(=O)N[C@H]1CC[C@H](NC(=O)c2cnc(Nc3ccc4ncsc4n3)cc2NC2CCOCC2)CC1" tested on IRAK4 (Homo sapiens (Human)). 0.0018

Report IC50 for "Cc1c(-c2ccncc2)ccc2ncnc(N[C@H]3CC[C@H](N4CCOCC4)CC3)c12" tested on IRAK4 (Homo sapiens (Human)). 0.433

----------
Several reports have described IC50 for IRAK4 (Homo sapiens (Human), UniProt Q9NWZ3); a selection of those results is presented here.
# value in nM; strip the unit string

Report IC50 for "CNC(=O)c1ccc(CCNC(=O)c2cnc(Nc3ccc4ncsc4c3)cc2NC(C)C)cc1" tested on IRAK4 (Homo sapiens (Human), UniProt Q9NWZ3). 5.6

Report IC50 for "Cn1cc(-c2ccc3[nH]c4ncnc(N[C@H]5CC[C@H](N6CCN(S(C)(=O)=O)CC6)CC5)c4c3c2)cn1" tested on IRAK4 (Homo sapiens (Human), UniProt Q9NWZ3). 13.8

Report IC50 for CC(C)Oc1nc2nc([C@]34CC[C@](C)(C3)OC4)cn2cc1C(=O)Nc1cccn([C@@H]2CC23CC3)c1=O (single isomer, unassigned) tested on IRAK4 (Homo sapiens (Human), UniProt Q9NWZ3). 1.7

----------
Several reports have described IC50 for IRAK4 (Homo sapiens (Human), UniProt Q9NWZ3); a selection of those results is presented here.

Report IC50 for "CCn1cc(Nc2cc(-c3cnn4cc(Cl)cnc34)ncc2C(=O)NC[C@@H](F)C(C)(C)O)cn1" tested on IRAK4 (Homo sapiens (Human), UniProt Q9NWZ3). 1 nM

Report IC50 for "CN1CCN(C(=O)CCCc2cn(-c3ccccc3)c(NC(=O)c3cccc(-c4ccc5[nH]ncc5c4)c3)n2)CC1" tested on IRAK4 (Homo sapiens (Human), UniProt Q9NWZ3). < 50 nM

Report IC50 for "Cn1cc(-c2cccc(C(=O)Nc3nc(CCCC(=O)NCCCN4CCCCC4)cn3-c3ccccc3)c2)cn1" tested on IRAK4 (Homo sapiens (Human), UniProt Q9NWZ3). < 50 nM

Report IC50 for "COC(=O)NC[C@H]1C[C@H](Nc2cc(-c3ccc4cc(C#N)cnn34)ncc2-c2cn(C(F)F)nn2)C1" tested on IRAK4 (Homo sapiens (Human), UniProt Q9NWZ3). 2 nM

Report IC50 for "CC(C)Nc1c(C(=O)N[C@H](C)CCO)cnc2ccc(-c3cn[nH]c3)cc12" tested on IRAK4 (Homo sapiens (Human), UniProt Q9NWZ3). 88.3 nM

Report IC50 for CC(C)(O)[C@H](F)CNC(=O)c1cnc(Nc2ccc3nccn3n2)cc1NC1CCC(F)C1 (stereo partly drawn) tested on IRAK4 (Homo sapiens (Human), UniProt Q9NWZ3). 1.2 nM

Report IC50 for "CC(C)Nc1c(C(=O)NCCCNS(C)(=O)=O)cnc2ccc(-c3cn[nH]c3)cc12" tested on IRAK4 (Homo sapiens (Human), UniProt Q9NWZ3). 10.5 nM

Report IC50 for "Cn1cc(-n2ccc3nc(Nc4cc(C(=O)NCC(F)F)cs4)nc(OC4CCOCC4)c32)cn1" tested on IRAK4 (Homo sapiens (Human), UniProt Q9NWZ3). ≤ 100 nM

Report IC50 for "CN(CC(=O)N1CCCC1)[C@H]1CC[C@H](Oc2ncnc3sc4c(c23)[C@@H](CCO)CC4)CC1" tested on IRAK4 (Homo sapiens (Human), UniProt Q9NWZ3). < 5000 nM

Report IC50 for Cn1cc(-c2cccc(-c3ncc(-c4cnn(C)c4)c(N[C@H]4CCC[C@@H]4O)n3)c2)cn1 (racemic) tested on IRAK4 (Homo sapiens (Human), UniProt Q9NWZ3). < 100 nM

Report IC50 for "CC(C)(O)[C@H](F)CNC(=O)c1cnc(-c2ccc3cc(C#N)cnn23)cc1N[C@H]1CC[C@H](c2cnn(C3CC3)c2)CC1" tested on IRAK4 (Homo sapiens (Human), UniProt Q9NWZ3). 1 nM

Report IC50 for "CNC(=O)[C@H]1CC[C@H](NC(=O)c2cnc(Nc3ccc4ncsc4c3)cc2NC2CCC2)CC1" tested on IRAK4 (Homo sapiens (Human), UniProt Q9NWZ3). 4.7 nM

Report IC50 for "CCC[C@H](N)c1cccc(-c2ccc3cnn(-c4ccnc(CO)n4)c3c2)n1" tested on IRAK4 (Homo sapiens (Human), UniProt Q9NWZ3). < 100 nM

Report IC50 for "CC(C)Nc1cc(-n2ncc3cc(C#N)cnc32)ncc1-n1cc(-c2ccncc2)nn1" tested on IRAK4 (Homo sapiens (Human), UniProt Q9NWZ3). 28 nM

Report IC50 for "N#Cc1cnc2c(cnn2-c2cc(NC3CC3)c(-c3cn(CCO)nn3)cn2)c1" tested on IRAK4 (Homo sapiens (Human), UniProt Q9NWZ3). 3 nM
